Sequence of the target: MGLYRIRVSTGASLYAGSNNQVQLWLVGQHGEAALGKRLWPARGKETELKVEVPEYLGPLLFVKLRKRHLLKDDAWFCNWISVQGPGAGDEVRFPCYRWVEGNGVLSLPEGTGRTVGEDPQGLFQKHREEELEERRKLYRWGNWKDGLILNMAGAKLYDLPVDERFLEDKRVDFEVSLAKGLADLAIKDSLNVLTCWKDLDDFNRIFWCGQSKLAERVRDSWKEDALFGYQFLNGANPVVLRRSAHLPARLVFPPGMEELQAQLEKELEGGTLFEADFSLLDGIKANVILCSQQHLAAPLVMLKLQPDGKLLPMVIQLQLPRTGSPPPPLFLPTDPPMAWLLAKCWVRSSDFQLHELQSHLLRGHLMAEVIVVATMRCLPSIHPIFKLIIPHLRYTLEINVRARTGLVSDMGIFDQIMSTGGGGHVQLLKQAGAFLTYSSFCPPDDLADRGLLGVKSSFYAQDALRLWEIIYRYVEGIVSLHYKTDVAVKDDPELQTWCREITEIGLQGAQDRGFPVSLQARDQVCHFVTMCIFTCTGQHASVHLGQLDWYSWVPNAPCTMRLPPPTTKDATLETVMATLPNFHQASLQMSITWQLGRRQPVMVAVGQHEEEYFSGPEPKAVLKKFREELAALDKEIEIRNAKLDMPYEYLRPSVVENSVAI
measured_metric: IC50
Number first, unit second: that is the form wanted.

Requested field: IC50. Item: c1ccc2c(c1)SCc1c-2[nH]c2ccccc12 10 µM
